target: synovial collagenase of porcine or human origin; assay: Anticollagenase activity: release of soluble peptides from radiolabeled collagen; type: biochemical; conditions: Table I; % inhibition 50; read-out: Concentration for 50 % inhibition (IC50), anticollagenase activity

{"columns": ["compound", "unit", "IC50"],
 "data": [
  ["CC(C)CC(CC(=O)NO)C(=O)N[C@H](C(N)=O)C(C)C (stereo partly shown) [Example 1]", "nM", 320],
  ["CC(C)CC(CC(=O)NO)C(=O)N[C@H](C(=O)NCCc1ccccc1)C(C)C (single isomer, unassigned) [Example 5]", "nM", 75],
  ["CC(C)CC(CC(=O)NO)C(=O)N[C@H](C(=O)NCc1ccccc1)C(C)C (single isomer, unassigned) [Example 3]", "nM", 35],
  ["CC(C)CC(CC(=O)NO)C(=O)N[C@H](C(=O)NCc1ccc(C(F)(F)F)cc1)C(C)C (single isomer, unassigned) [Example 4]", "nM", 80]
]}
